The origin of these recorded values is the supplement of paper PMC11208160.

# assay_text: recombinant barcode read abundance after kanamycin selection (control-corrected) (log10(CPM+1)); higher = more efficient recombination; sequences stand for … in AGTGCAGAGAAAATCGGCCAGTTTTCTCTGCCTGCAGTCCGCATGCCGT…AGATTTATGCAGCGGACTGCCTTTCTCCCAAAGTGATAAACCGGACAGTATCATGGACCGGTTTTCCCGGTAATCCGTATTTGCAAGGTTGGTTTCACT; site = the 11-nt target;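 note: IS621 recombinase and bridge RNA in Escherichia coli cells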
Grouping key: recombinant barcode read abundance (log10). Bins: Low (below 0.1), Medium (0.1 to below 0.4), High (0.4 or more)

INSERT INTO results (sequence_content, cat) VALUES
  ('AGGTCGGCTTGGGTTCTAACCTGTTGCCT (site AGATCGGCTAG)', 'Medium'),
  ('TACCTATCTTGGGTTCTAACCTGTTGCCT (site TGCCTATCTAG)', 'Low'),
  ('AACCGCCCTTGGGTTCTAACCTGTTGCCT (site AACCGCCCTAC)', 'High'),
  ('TTAACTACTTGGGTTCTAACCTGTTGCTG (site TTAACTACTTA)', 'Low'),
  ('GCGAACCCTTGGGTTCTAACCTGTTGCTT (site GCGAACCCTAA)', 'High'),
  ('AGCTTAGCTTGGGTTCTAACCTGTTGCCG (site AGCTTAGCTCG)', 'Medium'),
  ('GAATGTCCTTGGGTTCTAACCTGTTGCAT (site GAATGTCCTAT)', 'High'),
  ('AGGTAGACTTGGGTTCTAACCTGTTGCTA (site GGGTACACTTA)', 'Medium'),
  ('AACGACGCTTGGGTTCTAACCTGTTGCCT (site AACGACGCTAG)', 'High'),
  ('CCGTCACCTTGGGTTCTAACCTGTTGCCT (site TCGTCACCTAG)', 'Low'),
  ('CGCGGTTCTTGGGTTCTAACCTGTTGCCT (site CGCGGTTCTAG)', 'Low'),
  ('GATGGCCCTTGGGTTCTAACCTGTTGCCT (site GGTGGCCCTAG)', 'Medium'),
  ('TTAGGTCCTTGGGTTCTAACCTGTTGCAG (site TTAGATCCTAT)', 'Medium'),
  ('GTCGATCCTTGGGTTCTAACCTGTTGCCT (site GGCGATCCTAG)', 'Medium'),
  ('CATAGACCTTGGGTTCTAACCTGTTGCAT (site CATAGGCCTAT)', 'Low'),
  ('GCCCTCCCTTGGGTTCTAACCTGTTGCCT (site GCGCTCCCTAG)', 'Low'),
  ('GTAAGTTCTTGGGTTCTAACCTGTTGCCT (site GAAAGTTCTAG)', 'Low'),
  ('GGTTGAGCTTGGGTTCTAACCTGTTGCTG (site GGTGGGGCTCA)', 'Low'),
  ('GAAAACACTTGGGTTCTAACCTGTTGCCT (site GAAAACACTAG)', 'High'),
  ('CGTGCGACTTGGGTTCTAACCTGTTGCAT (site CGTTCGACTAT)', 'Medium'),
  ('GTGGAGTCTTGGGTTCTAACCTGTTGCCT (site GTAGAGTCTAA)', 'High'),
  ('TAAGGGACTTGGGTTCTAACCTGTTGCTA (site CGCCCTTCTAG)', 'Medium'),
  ('TCGCGTGCTTGGGTTCTAACCTGTTGCGG (site TCGCGTGCTCC)', 'Medium'),
  ('TTAGTACCTTGGGTTCTAACCTGTTGCCT (site TTAGTCCCTAG)', 'Medium'),
  ('AGTAGACCTTGGGTTCTAACCTGTTGCTT (site AGTATACCTCA)', 'Low'),
  ('GGTGGTCCTTGGGTTCTAACCTGTTGCCT (site GGTGGTCCTAG)', 'High'),
  ('CATAGCCCTTGGGTTCTAACCTGTTGCAT (site CATAGCCCTAT)', 'High'),
  ('CCTTGGACTTGGGTTCTAACCTGTTGCCT (site CCTTGCTCTAG)', 'Low'),
  ('GCGCGTTCTTGGGTTCTAACCTGTTGCCT (site GCGAGCTCTAG)', 'Low'),
  ('CGGCCCTCTTGGGTTCTAACCTGTTGCCT (site CAGCCCTCTAG)', 'High'),
  ('TATGCTACTTGGGTTCTAACCTGTTGCAT (site TATGCTACTAT)', 'Medium'),
  ('CTACGTACTTGGGTTCTAACCTGTTGCTG (site CTACGCACTCA)', 'Medium');
